biological target: Mitogen-activated protein kinase 8 (Homo sapiens); experiment: ATF-2 Phosphorylation Assay
Sequence (P45983 whole entry): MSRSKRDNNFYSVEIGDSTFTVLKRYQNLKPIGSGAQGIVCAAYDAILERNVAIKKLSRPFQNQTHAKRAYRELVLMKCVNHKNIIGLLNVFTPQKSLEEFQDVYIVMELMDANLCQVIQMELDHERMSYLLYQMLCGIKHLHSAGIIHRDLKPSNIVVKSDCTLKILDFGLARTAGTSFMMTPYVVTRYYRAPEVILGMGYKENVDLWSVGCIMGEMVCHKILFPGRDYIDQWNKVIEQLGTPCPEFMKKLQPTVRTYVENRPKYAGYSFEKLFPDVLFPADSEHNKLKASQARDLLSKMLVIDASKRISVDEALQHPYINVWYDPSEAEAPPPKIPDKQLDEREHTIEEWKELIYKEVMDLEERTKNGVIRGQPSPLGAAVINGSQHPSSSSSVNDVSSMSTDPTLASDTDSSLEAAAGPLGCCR
readout: IC50

IN: GET /values?readout=IC50&item= CCOc1cccc(NC(C)=O)n1 [N-(6-ethoxypyridin-2-yl)acetamide]
OUT: > 10 µM
